Here, each record is paired with measured IC50 data.
Molecular target: Mitochondrial complex I (NADH dehydrogenase)
Assay: Inhibition of mitochondrial ETC complex 1 in human T47D cells assessed as inhibition of 1% O2-induced HIF1 activation incubated for 30 mins prior to 1% O2-challenge measured after 16 hrs by luciferase reporter assay
Format: cell-based
# unit: µM | format: bare number

These solved cases illustrate the format of a correct answer.
                                   compound  value_kind  observed_measurement
0  COc1cc(C[C@H]2CO[C@H](c3ccc(O)c(OC)c3)[C@H]2COC(=O)CC(C)C)ccc1O [(+)-9'-ISOVALEROXYLARICIRESINOL]        IC50                   9.1
1     CC(C)=CCC/C(C)=C/COc1ccc2ccc(=O)oc2c1        IC50                  10.2

Attention now shifts to the item below.
Given the entry C=C(C)[C@H](O)CC/C(C)=C/COc1ccc2ccc(=O)oc2c1 , report its measured IC50.
10.4
